Record form. Attribute: CC50 at 72 h. Fill in for each entry.
Experiment: Cytotoxicity against human NHDF cells deficient of IRF3 assessed as reduction in cell viability incubated for 72 hrs by CellTiter Glo luminescence assay
Assay type: toxicity, cell-based

State the recorded CC50 at 72 h for this entry: O=C(Nc1nc(-c2ccc3ccccc3c2)cs1)c1cc(F)c(O)c(F)c1
20 µM

Consider the compound shown here: CSc1ncccc1C(=O)Nc1nc(-c2cccc(Nc3ccc(C#N)cn3)c2)cs1 What is its recorded CC50 at 72 h?
40 µM

// lookup CC50 at 72 h for CSc1ncccc1C(=O)Nc1nc(-c2cccc(Nc3cccc(C#N)c3)c2)cs1
> 30 µM

Would you kindly share the measured CC50 at 72 h for CSc1ncccc1C(=O)Nc1nc(-c2cccc(N3CCNCC3)c2)cs1 ?
> 30 µM

For the compound shown here, CC(C)(C(=O)O)c1ccc(C(=O)Nc2nc(-c3ccc4ccccc4c3)cs2)cc1 , give the reported CC50 at 72 h.
> 30 µM

# CC50 at 72 h lookup, item CSc1ncccc1C(=O)Nc1nc(-c2cccc(Nc3ccc(C#N)c(O)c3)c2)cs1
15.9 µM

Any idea what CC50 at 72 h was measured for CSc1ncccc1C(=O)Nc1nc(-c2ccc3ccccc3c2)cs1 ?
> 40 µM

Endpoint output: CC50 at 72 h of CSc1ncccc1C(=O)Nc1nc(-c2cccc(-c3ccc(C#N)cn3)c2)cs1 . Value?
> 30 µM

Consider the compound shown here: CC(C)(C#N)c1ccc(C(=O)Nc2nc(-c3ccc4ccccc4c3)cs2)cc1 What is its recorded CC50 at 72 h?
> 30 µM

Data request, read-out CC50 at 72 h, for CSc1ncccc1C(=O)Nc1nc(-c2cccc(Nc3ccc(C#N)c(C(=O)O)c3)c2)cs1
> 40 µM

Name the reported CC50 at 72 h value associated with the compound CSc1ncccc1C(=O)Nc1nc(-c2cc(C(=O)O)cc(-c3ccc(C#N)cc3)c2)cs1
> 40 µM

Which CC50 at 72 h is reported for this compound? Cc1ncccc1C(=O)Nc1nc(-c2ccc3ccccc3c2)cs1
> 30 µM

Query: CC50 at 72 h; subject: CSc1ncccc1C(=O)Nc1nc(-c2cc(-c3ccc(C#N)cc3)ccc2F)cs1
> 30 µM

Query: CC50 at 72 h; subject: CSc1ncccc1C(=O)Nc1nc(-c2cc(F)cc(-c3ccc(C#N)cc3)c2)cs1
> 30 µM

Look at this compound and give its reported CC50 at 72 h. CC(C)(C)c1ccc(C(=O)Nc2nc(-c3ccc4ccccc4c3)cs2)cc1
> 30 µM

Item under review: CSc1ncccc1C(=O)Nc1nc(-c2cccc(Nc3ccc(CN)cc3)c2)cs1 . Reported CC50 at 72 h?
15.4 µM

Would you kindly share the measured CC50 at 72 h for COc1cc(Nc2cccc(-c3csc(NC(=O)c4cccnc4SC)n3)c2)ccc1C#N ?
> 30 µM
